The following molecules are listed with their measured Luciferase Assay % Lum (full-length luciferase counter-screen) values.
- Study System: full-length P. pyralis luciferase (Photinus pyralis, UniProt P08659, K549A/L550V/N119G/N50D/S548I)
- Sequence (P08659 whole entry N50D/N119G/S548I/K549A/L550V, looked up): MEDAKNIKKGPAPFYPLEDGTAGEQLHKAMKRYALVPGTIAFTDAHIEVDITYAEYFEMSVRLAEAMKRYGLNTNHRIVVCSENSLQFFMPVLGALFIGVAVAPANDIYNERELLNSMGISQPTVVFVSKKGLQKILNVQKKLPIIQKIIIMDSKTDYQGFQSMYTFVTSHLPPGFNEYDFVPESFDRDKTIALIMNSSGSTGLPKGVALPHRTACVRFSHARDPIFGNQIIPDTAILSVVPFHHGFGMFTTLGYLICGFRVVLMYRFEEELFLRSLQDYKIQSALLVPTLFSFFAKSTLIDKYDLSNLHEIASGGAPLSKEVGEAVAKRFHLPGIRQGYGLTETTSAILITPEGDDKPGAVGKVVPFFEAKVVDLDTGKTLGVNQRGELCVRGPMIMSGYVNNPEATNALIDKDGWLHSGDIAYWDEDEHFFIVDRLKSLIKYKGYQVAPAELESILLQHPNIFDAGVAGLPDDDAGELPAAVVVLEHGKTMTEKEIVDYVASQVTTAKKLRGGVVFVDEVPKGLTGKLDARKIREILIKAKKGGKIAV
- Assay type: cell-based
- Condition Parameters: CC_NCI screening; normalized to on-plate 0.3% DMSO controls
Measured Parameter: Luciferase Assay % Lum (full-length luciferase counter-screen) (%)

INSERT INTO measurements (molecule, units_of_measure, readout_value) VALUES
  ('COc1c2occc2cc2ccc(=O)oc12 [Methoxsalen]', '%', 93.90),
  ('C#Cc1cccc(Nc2ncnc3cc(OCCOC)c(OCCOC)cc23)c1 [ERLOTINIB]', '%', 80.96),
  ('Sc1ncnc2nc[nH]c12 [Mercaptopurine]', '%', 102.01),
  ('Cc1nc2c(c(=O)[nH]1)CSCC2 [DR 2313]', '%', 93.50),
  ('Clc1ccc(C(c2ccccc2Cl)C(Cl)Cl)cc1 (stereo not shown) [Mitotane]', '%', 54.78),
  ('O=C(CCCCCCC(=O)Nc1ccccc1)NO [VORINOSTAT]', '%', 84.44),
  ('CS(=O)(=O)N1CCN(Cc2cc3nc(-c4cccc5[nH]ncc45)nc(N4CCOCC4)c3s2)CC1 [GDC 0941]', '%', 84.36),
  ('Cc1[nH]c2ccccc2c1CCNCc1ccc(/C=C/C(=O)NO)cc1 [LBH-589]', '%', 101.54),
  ('CO[C@@]12[C@H](COC(N)=O)C3=C(C(=O)C(C)=C(N)C3=O)N1C[C@@H]1N[C@@H]12 [Mitomycin]', '%', 110.98),
  ('O=c1[nH]cc(F)c(=O)[nH]1 [Fluorouracil]', '%', 111.63);

====

- Study System: full-length P. pyralis luciferase (Photinus pyralis, UniProt P08659, K549A/L550V/N119G/N50D/S548I)
- Type: cell-based
- Condition Parameters: CC_NCI screening; normalized to on-plate 0.3% DMSO controls
Where a name gives a salt, the structure may show the parent alone.
Label scheme for Luciferase Assay Z-score (full-length luciferase counter-screen): lower than 0.9 is no (0), 0.9 and above is yes (1).

INSERT INTO measurements (compound, qualitative_label) VALUES
  ('NC(=O)c1ccc2[nH]ccc2c1 [SD 169]', 'yes (1)'),
  ('CC(=O)O[C@H]1C(=O)[C@@]2(C)[C@H]([C@H](OC(=O)c3ccccc3)[C@]3(O)C[C@H](OC(=O)[C@H](O)[C@@H](NC(=O)c4ccccc4)c4ccccc4)C(C)=C1C3(C)C)[C@]1(OC(C)=O)CO[C@@H]1C[C@@H]2O [Paclitaxel]', 'yes (1)'),
  ('O=C1NC(=O)/C(=C/c2ccc3c(c2)OC(F)(F)O3)S1 [AS-604850]', 'no (0)'),
  ('CC(=O)[C@]1(O)Cc2c(O)c3c(c(O)c2[C@@H](O[C@H]2C[C@H](N)[C@H](O)[C@H](C)O2)C1)C(=O)c1ccccc1C3=O [Idarubicin hydrochloride]', 'yes (1)'),
  ('O=C1NC(=O)c2c1c1c3ccccc3n3c1c1c2c2ccccc2n1C1CCC3O1 [SB 218078]', 'no (0)'),
  ('O=c1cc(N2CCOCC2)nc2c3ccccc3ccn12 [COMPOUND 401]', 'no (0)');
